The reported measurements were obtained from PubChem BioAssay (NCATS).

- procedure_text: Quantitative High-Throughput drug screen in 47 multiple myeloma cell lines against the NCATS MIPE library collection: NCIH929_DSMZ cell viability assay (AID 1918978); further: nearly all actives have a fitted effect of over 35% in size
- condition_parameters: NCI-H929 myeloma viability, CellTiter-Glo ATP, 48 h; series mostly up to 45.8 µM
- Source text: PI: Beverly A. Mock Ph.D. Laboratory of Cancer Biology and Genetics, Center for Cancer Research, National Cancer Institute, National Institute of Health, Bethesda, Maryland […] 5; Detector; 425V; Luminescence; Viewlux PerkinElmer. […] 1. […] Briefly, the corresponding myeloma cell lines were screened in 1,536-well plates with 500 cells, 5-uL per well for inhibition of cell viability (assessed by measuring ATP levels with CellTiterGlo). […]
Results filed as inconclusive are left out. Active and inactive are the calls of the source. The call rests on the fitted dose curve; in most records, active means well fitted cell-killing curve with a large enough effect; inconclusive means small, poorly fitted or top-dose-only effect; inactive means no such curve, though single readings can be large or run the other way.
Log the outcome using a class from label 1 for active, label 0 for inactive

| compound | category |
| --- | --- |
| N#Cc1ccc(C(c2ccc(C#N)cc2)n2cncn2)cc1 | label 0 |
| CCCCNc1cc(C(=O)O)cc(S(N)(=O)=O)c1Oc1ccccc1 | label 0 |

Now examine the next entry.
INPUT: Assay result, entry COc1cc(F)c(F)c(Nc2ccc(I)cc2F)c1NS(=O)(=O)C1(C[C@H](O)CO)CC1 — outcome?
OUTPUT: label 1

====

# reported max response; entries follow
- Tested on: HEK293
- procedure_text: Cytotoxic Profiling of Annotated Libraries Using Quantitative High-Throughput Screening (AID 1296008); further: on the % scale 0 is the no-effect control and ±100 the full control effect; nearly all actives have a fitted effect of over 60% in size
- condition_parameters: Five cell lines viability, CellTiter-Glo ATP luminescence, 48-72 h; stronger effect = lower value
- Procedure: Cell-based phenotypic screening is a commonly used approach to discover biological pathways, novel drug targets, chemical probes and high-quality hit-to-lead molecules. […] A pintool (Kalypsys) was used to transfer 23 nL of compound solution to the 1536-well assay plates. […] Plates were left at room temperature for 10 min before imaging the ATP-coupled luminescence using a ViewLux microplate imager (PerkinElmer, Waltham, MA).
Results filed as inconclusive are left out.
Give your result in % as a bare value.

Worked cases, answers included:
| test_smiles | output_unit | max response |
| --- | --- | --- |
| OCCn1cc(-c2cnc3nnn(Cc4ccc5ncccc5c4)c3n2)cn1 | % | -13.9 |
| C[C@H](NC(=O)Cc1cc(F)cc(F)c1)C(=O)N[C@@H]1C(=O)N(C)c2ccccc2-c2ccccc21 | % | -10.7 |
| C[C@]1(c2nc3c(C(N)=O)cccc3[nH]2)CCCN1 | % | -23.2 |

Moving on to the next molecule.
INPUT: Which max response is reported for this molecule? CC(=O)Oc1ccccc1C(=O)O
OUTPUT: 1.6

====

- procedure_text: qHTS of pediatric cancer cell lines to identify multiple opportunities for drug repurposing: Primary screen for TC32 cells (AID 1347089); further: nearly all actives have a fitted effect of over 60% in size
- condition_parameters: TC32 Ewing sarcoma viability, CellTiter-Glo luminescence, 48 h; series mostly up to 45.8 µM
Results filed as inconclusive are left out. Calls of active or inactive are those of the source. Calls follow the shape of the dose curve; as a rule, active = well fitted cell-killing curve with a large enough effect; inconclusive = small, poorly fitted or top-dose-only effect; inactive = flat fitted curve, though single readings scatter.
Log the outcome using a class from label 1 (active), label 0 (inactive)

Answered examples (10):
| molecule | category |
| --- | --- |
| CCC(C)N(C)C(=O)c1cc2ccccc2c(-c2ccccc2Cl)n1 (stereo unspecified) | label 0 |
| NCCCC(N)(C(=O)O)C(F)F (stereo unspecified) | label 0 |
| NC(=O)c1ccc(-c2nc(-c3ccc4c(c3)OCCO4)c(-c3ccccn3)[nH]2)cc1 | label 0 |
| N#CC[C@H](C1CCCC1)n1cc(-c2ncnc3[nH]ccc23)cn1 | label 0 |
| Cc1c(CCOc2ccc(C(=O)O)cc2)c2cc(Cl)ccc2n1C(c1ccccc1)c1ccccc1 | label 0 |
| Cc1c(C)c2c(c(C)c1O)CCC(C)(COc1ccc(CC3SC(=O)NC3=O)cc1)O2 (stereo unspecified) | label 0 |
| CN(C)C(=O)c1ccc(S(=O)(=O)c2ccc(NC(=O)[C@@](C)(O)C(F)(F)F)c(Cl)c2)cc1 | label 0 |
| CC(C)(N)C(=O)N[C@H](COCc1ccccc1)C(=O)N1CCC2(CC1)CN(S(C)(=O)=O)c1ccccc12 | label 0 |
| Cc1c(CN2CCN(C(=O)C(C)C)CC2)sc2c(N3CCOCC3)nc(-c3cnc(N)nc3)nc12 | label 1 |
| Cc1ccc(N(CC2=NCCN2)c2cccc(O)c2)cc1 | label 0 |

INPUT: Assay result, entry NCCc1ccc(O)c(O)c1 — outcome?
OUTPUT: label 0

INPUT: Assay result, entry Cc1ccccc1C(OCCN(C)C)c1ccccc1 (stereo unspecified) — outcome?
OUTPUT: label 0

INPUT: Assay result, entry O=c1ncn2nc(Sc3ccc(F)cc3F)ccc2c1-c1c(Cl)cccc1Cl — outcome?
OUTPUT: label 0

INPUT: Assay result, entry CCOc1cc(N2CCC(O)CC2)ccc1Nc1ncc2c(n1)N(C)c1ccccc1C(=O)N2C — outcome?
OUTPUT: label 1

INPUT: Assay result, entry CC[C@@H](C)[C@H](NC(=O)[C@H](CC1CCCCC1)NC(=O)c1ccno1)C(=O)N1CCC2(CCc3ccccc32)CC1 — outcome?
OUTPUT: label 0

INPUT: Assay result, entry Cc1cc(SCc2sc(-c3ccc(C(F)(F)F)cc3)nc2C)ccc1OCC(=O)O — outcome?
OUTPUT: label 0

INPUT: Assay result, entry Nc1nc2ccc(OC(F)(F)F)cc2s1 — outcome?
OUTPUT: label 0

INPUT: Assay result, entry C[C@]12CCC(=O)C=C1CC[C@@H]1[C@@H]2[C@@H](O)C[C@@]2(C)[C@H]1CC[C@]2(O)C(=O)CO — outcome?
OUTPUT: label 0

INPUT: Assay result, entry Cc1cnc(NC(=O)C2=C(O)c3ccccc3S(=O)(=O)N2C)s1 — outcome?
OUTPUT: label 0

INPUT: Assay result, entry Cn1cc(-c2ccc3nnc(C(F)(F)c4ccc5ncccc5c4)n3n2)cn1 — outcome?
OUTPUT: label 0

INPUT: Assay result, entry Nc1cccc(S(=O)(=O)N2CCCN(S(=O)(=O)c3ccc4c(c3)OCCO4)CC2)c1 — outcome?
OUTPUT: label 0

====

- Tested on: astro
- procedure_text: Drug repurposing screens with cells derived from glioblastoma tumor samples (AID 1345199); further: nearly all actives have a fitted effect of over 40% in size
- condition_parameters: viability, ATP luminescence, 48 h; series mostly up to 45.9 µM
- Procedure: CD133+ cells were isolated from GBM patient biopsies and cultured as neurospheres. Neurospheres from four patients were used to screen the NCATS pharmaceutical collection (NPC) library of approved drugs and bioactive compounds. […] The neurospheres were incubated with drugs for 48 hours in 1536-well format, then assayed with an ATP content cell viability assay. […]
Records with an inconclusive call do not appear. The source made the active and inactive calls. Calls follow the shape of the dose curve; as a rule, active = well fitted inhibition curve with a large enough effect; inconclusive = small, poorly fitted or top-dose-only effect; inactive = flat fitted curve, though single readings scatter.
Log the outcome using a class from yes = active, no = inactive

Answered examples (4):
| compound | category |
| --- | --- |
| Cc1c(C)c2c(c(C)c1O)CCC(C)(COc1ccc(CC3SC(=O)NC3=O)cc1)O2 (stereo not drawn) | yes |
| Nc1ccc(S(=O)(=O)Nc2ccnn2-c2ccccc2)cc1 | no |
| Cc1oncc1C(=O)Nc1ccc(C(F)(F)F)cc1 | yes |
| Cc1[nH]c(=O)c(C#N)cc1-c1ccc2nccn2c1 | no |

INPUT: Assay result, entry NC(N)=NC(=O)c1nc(Cl)c(N)nc1N — outcome?
OUTPUT: no

INPUT: Assay result, entry CNC[C@H](O)c1cccc(O)c1 — outcome?
OUTPUT: no

INPUT: Assay result, entry N=c1nc(N2CCCCC2)cc(N)n1O — outcome?
OUTPUT: no

INPUT: Assay result, entry Oc1ccc(C2CNCCc3c2cc(O)c(O)c3Cl)cc1 (stereo not drawn) — outcome?
OUTPUT: no

INPUT: Assay result, entry CC(C)(C)NCC(O)c1ccc(O)c(CO)c1 (stereo not drawn) — outcome?
OUTPUT: no

INPUT: Assay result, entry O=C1CCC(N2C(=O)c3ccccc3C2=O)C(=O)N1 (stereo not drawn) — outcome?
OUTPUT: no

INPUT: Assay result, entry NS(=O)(=O)c1cc2c(cc1Cl)NC=NS2(=O)=O — outcome?
OUTPUT: no

INPUT: Assay result, entry NCCCC(N)(C(=O)O)C(F)F (stereo not drawn) — outcome?
OUTPUT: no

INPUT: Assay result, entry O=NN(CCCl)C(=O)NCCCl — outcome?
OUTPUT: no

====

- target_entity: Phospholipid hydroperoxide glutathione peroxidase GPX4 (Homo sapiens) (UniProt P36969)
- Sequence (P36969 whole entry, looked up): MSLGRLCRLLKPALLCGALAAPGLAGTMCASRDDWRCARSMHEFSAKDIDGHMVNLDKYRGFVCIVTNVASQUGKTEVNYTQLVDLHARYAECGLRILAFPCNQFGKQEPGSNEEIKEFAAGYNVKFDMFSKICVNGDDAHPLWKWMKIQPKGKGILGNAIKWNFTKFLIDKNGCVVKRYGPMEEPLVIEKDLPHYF
- procedure_text: Primary qHTS Assay for Inhibitors of Recombinant Selenoprotein Glutathione Peroxidase 4 (GPX4) (AID 1845192); further: nearly all actives have a fitted effect of over 65% in size; further: potency means the concentration at half of the fitted maximal effect
- condition_parameters: recombinant GPX4, GR-coupled NADPH fluorescence, 15 min; series mostly up to 50 µM
Results filed as inconclusive are left out. Calls of active or inactive are those of the source. Calls come from the whole dose curve; as a rule, active = well fitted inhibition curve with a large enough effect; inconclusive = small, poorly fitted or top-dose-only effect; inactive = flat fitted curve, though single readings scatter.
quantity_measured: Potency

| test_smiles | data_value |
| --- | --- |
| OC[C@H](Cc1ccccc1)Nc1nc(Oc2ccc3c(c2)CCC3)nc2c1ncn2Cc1ccc(-c2ccccc2)cc1 | inactive |
| CS(=O)(=O)Oc1ccc2c(NC(N)=O)c(C(=O)c3ccc(Cl)cc3Cl)oc2c1 | inactive |
| CCCS(=O)(=O)Nc1ccc(F)c(C(=O)c2c[nH]c3ncc(Cl)cc23)c1F | inactive |
| CCCCCCCc1ccc(CCc2cccc(O)c2C(=O)O)cc1 | 20.2 µM (active) |

Moving on to the next compound.
INPUT: Which Potency is reported for this compound? CCc1cc(Nc2nccc(-c3c(-c4ccc(OC)c(C(=O)Nc5c(F)cccc5F)c4)nc4ccccn34)n2)c(OC)cc1N1CCC(N2CCN(S(C)(=O)=O)CC2)CC1
OUTPUT: inactive
